- targetOrTestSystem: human full-length MKNK1 (Homo sapiens, UniProt Q9BUB5, T385D)
- Construct: GST (N); purchased Carna Biosciences 02-145; host or cells: insect cells (baculovirus expression system)
- Sequence (Q9BUB5 1-424 isoform Q9BUB5-2 T344D): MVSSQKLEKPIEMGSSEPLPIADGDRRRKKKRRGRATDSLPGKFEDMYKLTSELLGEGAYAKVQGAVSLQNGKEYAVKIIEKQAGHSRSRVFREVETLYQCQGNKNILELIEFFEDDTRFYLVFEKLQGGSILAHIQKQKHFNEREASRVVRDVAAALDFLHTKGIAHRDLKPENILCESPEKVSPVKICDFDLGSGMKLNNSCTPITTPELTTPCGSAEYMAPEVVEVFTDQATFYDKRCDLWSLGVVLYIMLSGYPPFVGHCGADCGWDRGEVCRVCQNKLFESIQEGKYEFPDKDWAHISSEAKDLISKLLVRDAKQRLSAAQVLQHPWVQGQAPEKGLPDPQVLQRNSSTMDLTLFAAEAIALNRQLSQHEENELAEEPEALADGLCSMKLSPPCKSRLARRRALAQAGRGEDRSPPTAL
- assayProcedure: MKNK1 kinase high ATP assay (TR-FRET)
- Assay type: biochemical
- assayContext: TR-FRET, high ATP (2 mM final), 15 min preincubation with enzyme, GST-MKNK1 (T344D); read-out: MKNK1 IC50
pIC50: −log10 of the molar value.
Returns met if the recorded pIC50 is greater than or equal to 8, and not met otherwise.

| structureAsSmiles | answerLabel |
| --- | --- |
| COc1cc2nnsc2cc1Nc1ncnc2sc3c(c12)CC[C@H](C(=O)N1C[C@H](O)[C@@H](O)C1)C3 | met |
| O=C([C@H]1CCc2c(sc3ncnc(Nc4ccc5nnsc5c4)c23)C1)N1CCC1 | not met |
| COc1cc2nnsc2cc1Nc1ncnc2sc3c(c12)CC[C@H](C(=O)N1CC(N(C)C)C1)C3 | met |
| COc1cc2nnsc2cc1Nc1ncnc2sc3c(c12)CC[C@H](C(=O)N1CC[C@@H](N(C)C)C1)C3 | met |
| COc1cc2nnsc2cc1Nc1ncnc2sc3c(c12)CC[C@H](C(=O)N(C)C(C)C)C3 | met |
| CCN(CCO)C(=O)[C@H]1CCc2c(sc3ncnc(Nc4cc5snnc5cc4OC)c23)C1 | met |
| COc1cc2nnsc2cc1Nc1ncnc2sc3c(c12)CC[C@H](C(=O)N(C)CCCN(C)C)C3 | met |
| O=C([C@H]1CCc2c(sc3ncnc(Nc4ccc5nnsc5c4)c23)C1)N1CCOCC1 | not met |
| CC(C)N(C)C(=O)[C@H]1CCc2c(sc3ncnc(Nc4ccc5nnsc5c4)c23)C1 | not met |
| COc1cc2nnsc2cc1Nc1ncnc2sc3c(c12)CC[C@H](C(=O)N1CCC(N(C)CCN(C)C)CC1)C3 | met |
| C[C@@H]1COC[C@@H](C)N1C(=O)[C@H]1CCc2c(sc3ncnc(Nc4ccc5nnsc5c4)c23)C1 | met |
| CN1C[C@@H]2C[C@H]1CN2C(=O)[C@H]1CCc2c(sc3ncnc(Nc4ccc5nnsc5c4)c23)C1 | not met |
| COc1cc2nnsc2cc1Nc1ncnc2sc3c(c12)CC[C@H](C(=O)N(C)CC(=O)N(C)C)C3 | met |
| COc1cc2nnsc2cc1Nc1ncnc2sc3c(c12)CC[C@H](C(=O)N1CCN(CCN(C)C)CC1)C3 | met |
| COc1cc2nnsc2cc1Nc1ncnc2sc3c(c12)CC[C@H](C(=O)N(C)C)C3 | met |
| COCCN(C)C(=O)[C@H]1CCc2c(sc3ncnc(Nc4cc5snnc5cc4OC)c23)C1 | met |

###

- targetOrTestSystem: human full-length MKNK1 (Homo sapiens, UniProt Q9BUB5, T385D)
- Construct: GST (N); purchased Carna Biosciences 02-145; host or cells: insect cells (baculovirus expression system)
- assayProcedure: MKNK1 kinase high ATP assay (TR-FRET)
- Assay type: biochemical
- assayContext: TR-FRET, high ATP (2 mM final), 15 min preincubation with enzyme, GST-MKNK1 (T344D); read-out: MKNK1 IC50
pIC50: −log10 of the molar value.
This listing pairs compounds with measured pIC50.

| compound | pIC50 |
| --- | --- |
| CN1C[C@H]2C[C@@H]1CN2C(=O)[C@H]1CCc2c(sc3ncnc(Nc4ccc5nnsc5c4)c23)C1 [Example 59] | 8.49 |
| COc1cc2nnsc2cc1Nc1ncnc2sc3c(c12)CC[C@H](C(=O)N1C[C@H]2C[C@@H]1CN2C)C3 [Example 58] | 8.72 |
| COc1cc2nnsc2cc1Nc1ncnc2sc3c(c12)CC[C@H](C(=O)N1CCN(C)CC1)C3 [Example 50] | 7.96 |
| COc1cc2nnsc2cc1Nc1ncnc2sc3c(c12)CC[C@H](C(=O)N(C)CCNC(=O)OC(C)(C)C)C3 [Example 40] | 9.10 |
| O=C([C@H]1CCc2c(sc3ncnc(Nc4ccc5nnsc5c4)c23)C1)N1CC(F)(F)C1 [Example 31] | 7.85 |
| CN(C)[C@H]1CCN(C(=O)[C@H]2CCc3c(sc4ncnc(Nc5ccc6nnsc6c5)c34)C2)C1 [Example 13] | 8.21 |
| CN(CCN)C(=O)[C@H]1CCc2c(sc3ncnc(Nc4ccc5nnsc5c4)c23)C1 [Example 25] | 8.49 |
